# TARGET_OR_TEST_SYSTEM: TEAD4 (Homo sapiens (Human))
# Sequence (Q15561 whole entry, species assumed): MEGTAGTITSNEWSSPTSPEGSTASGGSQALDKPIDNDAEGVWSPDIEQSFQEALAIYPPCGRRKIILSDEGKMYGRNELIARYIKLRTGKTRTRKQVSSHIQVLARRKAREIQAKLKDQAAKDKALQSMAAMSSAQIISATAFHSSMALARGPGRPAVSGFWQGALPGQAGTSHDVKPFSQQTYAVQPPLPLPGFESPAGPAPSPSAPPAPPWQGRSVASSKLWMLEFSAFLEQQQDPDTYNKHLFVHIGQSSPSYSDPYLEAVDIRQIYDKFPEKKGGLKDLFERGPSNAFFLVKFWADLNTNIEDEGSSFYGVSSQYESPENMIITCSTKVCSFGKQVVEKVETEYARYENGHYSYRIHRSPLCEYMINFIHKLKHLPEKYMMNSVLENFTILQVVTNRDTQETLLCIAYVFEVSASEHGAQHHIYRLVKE
# ASSAY_DETAILS: TR-FRET lipid pocket probe competition assay (Lipid HTRF), TEAD4;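 note: His-tagged TEAD4 with biotinylated lipid-pocket probe, read by Europium anti-His and XL665 streptavidin, where probe displacement lowers the TR-FRET signal, IC50 from a four-parameter fit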
# Type: binding
# EXPERIMENTAL_SETUP: 4 hours pre-incubation; read-out: Lipid HTRF TEAD4 IC50
Measured log10 of IC50 of individual entries
Scale: log10; quantity: IC50; unit before log: nM

Examples with their reported log10 of IC50 follow.
| SMILES_ENTRY | EXPERIMENTAL_VALUE |
| --- | --- |
| C=C(F)C(=O)N1CC(c2nn(-c3ccc(OC(F)(F)F)cc3)c3nccc(N4CC[C@@H](O)C4=O)c23)C1 | 1.64 |
| C=CC(=O)NCc1nn(-c2ccc(OC(F)(F)F)cc2)c2nccc(C(=O)NCCO)c12 | 1.98 |
| C=CC(=O)NCc1nn(-c2ccc(OC(F)(F)F)cc2)c2nccc(-c3c[nH]nn3)c12 | 1.18 |
| C=CC(=O)NCc1nn(-c2ccc(OC(F)(F)F)cc2)c2nccc(-c3cnn(CCN(C)C)c3)c12 | 2.18 |
| O=C(/C=C/CO)N1CC(c2nn(-c3ccc(OC(F)(F)F)cc3)c3nccc(Cl)c23)C1 | 0.52 |

Item under review: `C=C(F)C(=O)N1CC(c2nn(-c3ccc(OC(F)(F)F)cc3)c3nccc(-c4cnn(C)c4)c23)C1` . Reported log10 of IC50?
1.81

Item under review: `C=C(Cl)C(=O)N1CC(c2nn(-c3ccc(OC(F)(F)F)cc3)c3nccc([C@@H](O)CO)c23)C1` . Reported log10 of IC50?
0.63

The measured values listed here are drawn from patent US12110276B2.
